Protocol Notes: Study .2: multiple rising dose trial in diabetic patients, once daily for 8 days, pharmacokinetic parameters
Type: in vivo, human
Assay Conditions: human, plasma, oral, 2.5 mg, 2.5 mg single dose, Study .2, fasted; read-out: Cmax Median
Reported Metric: Cmax (nM)
Note: unit nM is implicit; provide only the numeric part.

So, OC[C@H]1O[C@@H](c2ccc(Cl)c(Cc3ccc(O[C@H]4CCOC4)cc3)c2)[C@H](O)[C@@H](O)[C@@H]1O ? Its Cmax was 62.6

###

Protocol Notes: Pharmacokinetic profile in fasting humans, ranges over Studies .1 to .5
Type: in vivo
Assay Conditions: human, plasma, oral, 10 mg, multiple doses of 10.0 mg, read-out: Cmax,ss
Reported Metric: Cmax

So, OC[C@H]1O[C@@H](c2ccc(Cl)c(Cc3ccc(O[C@H]4CCOC4)cc3)c2)[C@H](O)[C@@H](O)[C@@H]1O ? Its Cmax was 166 to 479 nM

###

Protocol Notes: Study .2: multiple rising dose trial in diabetic patients, once daily for 8 days, pharmacokinetic parameters
Type: in vivo, human
Assay Conditions: human, plasma, oral, 25 mg, 25 mg single dose, Study .2, fasted; read-out: Cmax Median
Reported Metric: Cmax (nM)
Note: unit nM is implicit; provide only the numeric part.

So, OC[C@H]1O[C@@H](c2ccc(Cl)c(Cc3ccc(O[C@H]4CCOC4)cc3)c2)[C@H](O)[C@@H](O)[C@@H]1O [Compound (I.9)] ? Its Cmax was 569

###

Protocol Notes: Study .1: single dose study in healthy volunteers, pharmacokinetic parameters
Assay type: in vivo, human
Assay Conditions: human, plasma, oral, 25 mg, 25 mg single dose, Study .1, fasted; read-out: Cmax gMean
Reported Metric: Cmax (µM)
Note: unit µM is implicit; provide only the numeric part.

So, OC[C@H]1O[C@@H](c2ccc(Cl)c(Cc3ccc(O[C@H]4CCOC4)cc3)c2)[C@H](O)[C@@H](O)[C@@H]1O ? Its Cmax was 0.49

###

Protocol Notes: Study .2: multiple rising dose trial in diabetic patients, once daily for 8 days, pharmacokinetic parameters
Type: in vivo, human
Assay Conditions: human, plasma, oral, 25 mg, 25 mg once daily, steady state, Study .2, fasted; read-out: tmax,ss Mean
Reported Metric: Tmax (h)
Note: unit h is implicit; provide only the numeric part.

So, OC[C@H]1O[C@@H](c2ccc(Cl)c(Cc3ccc(O[C@H]4CCOC4)cc3)c2)[C@H](O)[C@@H](O)[C@@H]1O ? Its Tmax was 2.26

###

Protocol Notes: Pharmacokinetic profile in fasting humans, ranges over Studies .1 to .5
Assay type: in vivo
Assay Conditions: human, plasma, oral, 10 mg, single dose of 10.0 mg, read-out: AUC0-inf
Reported Metric: AUC(0-inf)

So, OC[C@H]1O[C@@H](c2ccc(Cl)c(Cc3ccc(O[C@H]4CCOC4)cc3)c2)[C@H](O)[C@@H](O)[C@@H]1O [Compound (I.9)] ? Its AUC(0-inf) was 1.17 to 3.19 µM·h

###

Protocol Notes: Study .5: single dose study in healthy Japanese volunteers, pharmacokinetic parameters
Assay type: in vivo, human
Assay Conditions: human, plasma, oral, 5 mg, 5 mg single dose, Study .5, fasted; read-out: AUC0-inf Mean
Reported Metric: AUC(0-inf) (µM·h)
Note: unit µM·h is implicit; provide only the numeric part.

So, OC[C@H]1O[C@@H](c2ccc(Cl)c(Cc3ccc(O[C@H]4CCOC4)cc3)c2)[C@H](O)[C@@H](O)[C@@H]1O [Compound (I.9)] ? Its AUC(0-inf) was 1.14

###

Protocol Notes: Pharmacokinetic profile in fasting humans, ranges over Studies .1 to .5
Type: in vivo
Assay Conditions: human, plasma, oral, 2.5 mg, dose of 2.5 mg, read-out: geometric mean Cmax
Reported Metric: Cmax

So, OC[C@H]1O[C@@H](c2ccc(Cl)c(Cc3ccc(O[C@H]4CCOC4)cc3)c2)[C@H](O)[C@@H](O)[C@@H]1O ? Its Cmax was 52.9 to 66.6 nM

###

Protocol Notes: Study .4: 4-week treatment of diabetic patients, once daily, pharmacokinetic parameters
Type: in vivo, human
Assay Conditions: human, plasma, oral, 25 mg, 25 mg single dose, Study .4, fasted; read-out: Cmax gMean
Reported Metric: Cmax (nM)
Note: unit nM is implicit; provide only the numeric part.

So, OC[C@H]1O[C@@H](c2ccc(Cl)c(Cc3ccc(O[C@H]4CCOC4)cc3)c2)[C@H](O)[C@@H](O)[C@@H]1O ? Its Cmax was 709

###

Protocol Notes: Study .1: single dose study in healthy volunteers, pharmacokinetic parameters
Assay type: in vivo, human
Assay Conditions: 25 mg single dose, Study .1, fasted; read-out: Cmax Min
Reported Metric: Cmax (nM)
Note: unit nM is implicit; provide only the numeric part.

So, OC[C@H]1O[C@@H](c2ccc(Cl)c(Cc3ccc(O[C@H]4CCOC4)cc3)c2)[C@H](O)[C@@H](O)[C@@H]1O ? Its Cmax was 334

###

Protocol Notes: Study .2: multiple rising dose trial in diabetic patients, once daily for 8 days, pharmacokinetic parameters
Format: in vivo, human
Assay Conditions: human, plasma, oral, 2.5 mg, 2.5 mg single dose, Study .2, fasted; read-out: AUC0-inf gMean
Reported Metric: AUC(0-inf) (µM·h)
Note: unit µM·h is implicit; provide only the numeric part.

So, OC[C@H]1O[C@@H](c2ccc(Cl)c(Cc3ccc(O[C@H]4CCOC4)cc3)c2)[C@H](O)[C@@H](O)[C@@H]1O ? Its AUC(0-inf) was 0.468

###

Protocol Notes: Study .2: multiple rising dose trial in diabetic patients, once daily for 8 days, pharmacokinetic parameters
Assay type: in vivo, human
Assay Conditions: human, plasma, oral, 25 mg, 25 mg once daily, steady state, Study .2, fasted; read-out: AUCτ,ss gMean
Reported Metric: AUC (µM·h)
Note: unit µM·h is implicit; provide only the numeric part.

So, OC[C@H]1O[C@@H](c2ccc(Cl)c(Cc3ccc(O[C@H]4CCOC4)cc3)c2)[C@H](O)[C@@H](O)[C@@H]1O [Compound (I.9)] ? Its AUC was 4.89

###

Protocol Notes: Pharmacokinetic profile in fasting humans, ranges over Studies .1 to .5
Type: in vivo
Assay Conditions: human, plasma, oral, 25 mg, dose of 25.0 mg, read-out: geometric mean Cmax
Experimental: 5. Pharmacokinetic Parameters The pharmacokinetic parameters of pharmaceutical compositions and pharmaceutical dosage forms are assessed in healthy volunteer and patient populations. […] For the quantification of plasma concentrations of the active ingredient, 2.7 mL of blood was collected and transferred into an EDTA (ethylendiaminetetraacetic acid)-anticoagulant blood drawing tube. […] Concentrations of active substance in EDTA human plasma samples were quantitated using a HPLC/MS/MS method. […]
Reported Metric: Cmax

So, OC[C@H]1O[C@@H](c2ccc(Cl)c(Cc3ccc(O[C@H]4CCOC4)cc3)c2)[C@H](O)[C@@H](O)[C@@H]1O ? Its Cmax was 490 to 709 nM

###

Protocol Notes: Study .2: multiple rising dose trial in diabetic patients, once daily for 8 days, pharmacokinetic parameters
Type: in vivo, human
Assay Conditions: human, plasma, oral, 2.5 mg, 2.5 mg single dose, Study .2, fasted; read-out: Cmax gMean
Reported Metric: Cmax
For clarity, give the value followed by its unit.

So, OC[C@H]1O[C@@H](c2ccc(Cl)c(Cc3ccc(O[C@H]4CCOC4)cc3)c2)[C@H](O)[C@@H](O)[C@@H]1O [Compound (I.9)] ? Its Cmax was 61.3 nM

###

Protocol Notes: Study .4: 4-week treatment of diabetic patients, once daily, pharmacokinetic parameters
Type: in vivo, human
Assay Conditions: human, plasma, oral, 25 mg, 25 mg single dose, Study .4, fasted; read-out: Cmax Mean
Reported Metric: Cmax (nM)
Note: unit nM is implicit; provide only the numeric part.

So, OC[C@H]1O[C@@H](c2ccc(Cl)c(Cc3ccc(O[C@H]4CCOC4)cc3)c2)[C@H](O)[C@@H](O)[C@@H]1O [Compound (I.9)] ? Its Cmax was 722

###

Protocol Notes: Study .2: multiple rising dose trial in diabetic patients, once daily for 8 days, pharmacokinetic parameters
Format: in vivo, human
Assay Conditions: 10 mg once daily, steady state, Study .2, fasted; read-out: Cmax,ss Max
Reported Metric: Cmax (nM)
Note: unit nM is implicit; provide only the numeric part.

So, OC[C@H]1O[C@@H](c2ccc(Cl)c(Cc3ccc(O[C@H]4CCOC4)cc3)c2)[C@H](O)[C@@H](O)[C@@H]1O [Compound (I.9)] ? Its Cmax was 479

###

Protocol Notes: Study .3: single dose, cross-over, food effect study in healthy volunteers, pharmacokinetic parameters
Assay type: in vivo, human
Assay Conditions: human, plasma, oral, 50 mg, 50 mg single dose, Study .3/fed; read-out: AUC0-inf gMean
Reported Metric: AUC(0-inf) (µM·h)
Note: unit µM·h is implicit; provide only the numeric part.

So, OC[C@H]1O[C@@H](c2ccc(Cl)c(Cc3ccc(O[C@H]4CCOC4)cc3)c2)[C@H](O)[C@@H](O)[C@@H]1O ? Its AUC(0-inf) was 7.46

###

Protocol Notes: Study .2: multiple rising dose trial in diabetic patients, once daily for 8 days, pharmacokinetic parameters
Format: in vivo, human
Assay Conditions: human, plasma, oral, 10 mg, 10 mg once daily, steady state, Study .2, fasted; read-out: AUCτ,ss Median
Reported Metric: AUC (µM·h)
Note: unit µM·h is implicit; provide only the numeric part.

So, OC[C@H]1O[C@@H](c2ccc(Cl)c(Cc3ccc(O[C@H]4CCOC4)cc3)c2)[C@H](O)[C@@H](O)[C@@H]1O [Compound (I.9)] ? Its AUC was 1.94
